B1: tRNA (parent)
chain: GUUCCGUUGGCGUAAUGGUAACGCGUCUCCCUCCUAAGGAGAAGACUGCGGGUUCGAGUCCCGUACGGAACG

variants of: B1; test: yeast fitness relative to wild type (ratio to wild type); higher = fitter; tRNA-Arg(CCU), competitive growth, 37 C, YPD
This sample holds only a part of the variants without activity.
Please respond with reported yeast fitness for every item in the list.
One number for each entry.

Worked examples, 10 variants total:
variant_descriptor="C22A A69C A70G" numeric_readout=0.638
variant_descriptor="C27U C31A A45U" numeric_readout=0.747
variant_descriptor="A37G A70U" numeric_readout=0.741
variant_descriptor="A15U A43G U59C" numeric_readout=0.53
variant_descriptor="G18A A20U C62A A70C" numeric_readout=0.552
variant_descriptor="C31U A57C" numeric_readout=0.574
variant_descriptor="C24U A43U C49U C66U" numeric_readout=0.576
variant_descriptor="U19C A20C A43G C46A C55U A57U C61U" numeric_readout=0.592
variant_descriptor="G12A U26A C31G" numeric_readout=0.541
variant_descriptor="G12A C24A A36C C61U G67U" numeric_readout=0.615

Answer for every listed entry: what is its yeast fitness? The entries follow.
1. U3C C31U C49G
2. C29A A57C U59A
3. A40G A43U C46G C49G C62U
4. A40U G52C
5. A15C A40U A70U
6. C4G U8A G12A G48A A69C
7. U2C A20U U28A G67U
8. C4U A21G C46A G68C

1: 0.755; 2: 0.55; 3: 0.532; 4: 0.608; 5: 0.563; 6: 0.573; 7: 0.579; 8: 0.544

Hey, quick one: what's yeast fitness for each of these?
1. C31G U54A
2. G6A A20G C24U
3. U3C C30A
4. C27U G39C
5. G38A C46U

0.655
0.612
1.06
0.613
0.798
